Entries and their MIC values follow.
# Tested on: Pasteurella multocida
# Assay Name: The minimum inhibitory concentration (MIC) of the cyclohexylamide analogs against Pasteurella multocida
# Type: functional
Measurement Name: MIC

>>> print(df.to_string())
                                   molecule  measurement_name  assay_value
0  CO[C@@H]1[C@H](NC(=O)/C(C)=C\c2ccc(O[C@@H]3O[C@H](C(C)=O)[C@@H](O)[C@@H]3O)c(O)c2)[C@H](O)[C@@H](O)[C@H]2OCO[C@H]21               MIC   12.5 µg/mL
1  CC(=O)[C@H]1O[C@@H](Oc2ccc(/C=C(\C)C(=O)N[C@H]3C4OC(C5OCOC54)[C@H]3O)cc2O)[C@@H](O)[C@@H]1O (stereo partly drawn)               MIC  > 200 µg/mL
2  CO[C@@H]1[C@H](O)[C@@H](O)[C@@H](NC(=O)/C(C)=C\c2ccc(O[C@@H]3O[C@H](C(C)=O)[C@@H](O)[C@@H]3O)c(O)c2)[C@@H](O)[C@@H]1OC               MIC  > 400 µg/mL

====

# Test system: Pasteurella multocida
# Assay Name: The minimum inhibitory concentration (MIC) of the cyclohexylamide analogs against Pasteurella multocida
# Assay type: functional
# MIC per record follows
Measurement Name: MIC (µg/mL)

Molecule	Assay Value
CO[C@@H]1[C@@H](O)[C@@H](NC(=O)/C(C)=C\c2ccc(O[C@@H]3O[C@H](C(C)=O)[C@@H](O)[C@@H]3O)c(O)c2)[C@@H](O)[C@@H]2OCO[C@H]12	100
CO[C@@H]1[C@@H](O)[C@H]2OCO[C@H]2[C@H](O)[C@@H]1NC(=O)/C(C)=C\c1ccc(O[C@@H]2O[C@H](C(C)=O)[C@@H](O)[C@@H]2O)c(O)c1	12.5
CC(=O)[C@H]1O[C@@H](Oc2ccc(/C=C(\C)C(=O)N[C@@H]3[C@H](O)[C@@H](O)[C@H]4OCO[C@H]4[C@@H]3O)cc2O)[C@@H](O)[C@@H]1O [HYGROMYCIN A]	1.56
CC(=O)[C@H]1O[C@@H](Oc2ccc(/C=C(/C)C(=O)N[C@H]3[C@@H](O)[C@@H]4OCO[C@@H]4[C@H](O)[C@@H]3O)cc2O)[C@@H](O)[C@@H]1O	12.5
